- assay_method_text: agonists of NOTCH signaling (AID 434982)
- details: NOTCH signaling luciferase reporter cells, luminescence; at 2.5 µM; active compounds read high
Among all 15,000 compounds or so, about 60 (0.4%) were called active. Shown is part of a subset that was picked to be rich in actives.
Each item that follows carries a reported activation.
State the answer as a number, implicitly in %.

Sample records with activation:
Look up activation for this compound: N#C/C(=C\C=C\c1ccccc1)c1nc2ccccc2[nH]1
-5.39

Look up activation for this compound: COC(=O)c1noc(C)c1-c1ccnn1C(=O)c1ccc(Cl)cc1
0.11

Look up activation for this compound: O=C1Nc2ccccc2C12NNC(=S)NN2
-0.45

Look up activation for this compound: O=C(O)c1ncoc1-c1cccc(Cl)c1
-0.29

Look up activation for this compound: O=C(Cc1cccc2ccccc12)NNC(=O)Nc1ccc(Cl)cc1
-0.03

---
Look up activation for this compound: CCOC(=O)C(=CNNc1ccc(C(=O)O)cc1[N+](=O)[O-])C(=O)OCC
-0.57

Look up activation for this compound: Cc1ccc(Oc2c(C)[nH]c(=S)[nH]c2=O)cc1
-0.61

Look up activation for this compound: CSc1ccc(Br)cc1
0.1

Look up activation for this compound: CN(C)/C=C1/C(=O)NN=C1CSc1ccc(Cl)cc1
-0.25
